tested on: SF-268; assay: NCI tumour cell line growth inhibition, 48 h
Activity calls are given as the source filed them. Cut-off read from the data, not from the text of the source: active = GI50 up to about 1.1 µM and inactive = higher.
Outcomes: yes for active, no for inactive

>  <MOLECULE>
COc1ccc2cc3[n+](cc2c1OC)CCc1cc2c(cc1-3)OCO2 [BERBERINE CHLORIDE]

>  <LABEL>
no

$$$$
>  <MOLECULE>
Nc1nc(Cl)cc(NCC2(O)CC2)n1

>  <LABEL>
no

$$$$
>  <MOLECULE>
COc1cc(S(=O)(=O)Nc2ccc(-c3csc(N4C(=O)C(C)SC4c4cccc(Oc5ccccc5)c4)n3)cc2)ccc1Cl (centres undefined)

>  <LABEL>
no

$$$$
>  <MOLECULE>
CC(O)CCCCC(O)CCC[C@H](O)[C@H]1CCC([C@H]2CCC([C@@H](O)CCCCCCCCCCCCC3=C[C@H](C)OC3=O)O2)O1 (some centres undefined)

>  <LABEL>
no

$$$$
>  <MOLECULE>
Cc1cccc2c(N)c3cccc(C(=O)NCC[N+](C)(C)[O-])c3nc12

>  <LABEL>
no

$$$$
>  <MOLECULE>
C[C@]12CC[C@@H]3c4ccc(OP(=O)(O)O)cc4CC[C@H]3[C@@H]1CCC2=O

>  <LABEL>
no

$$$$
>  <MOLECULE>
Fc1ccccc1/N=c1\oc2ccc(Br)cc2cc1-c1nc2ccccc2[nH]1

>  <LABEL>
yes

$$$$
>  <MOLECULE>
NC(Cc1ccc2nc3c4ccccc4c(=O)cc-3oc2c1)C(=O)O (centres undefined)

>  <LABEL>
no

$$$$
>  <MOLECULE>
O=C(O)/C=C/c1ccc(Oc2ccccc2C(=O)O)o1

>  <LABEL>
no

$$$$

###

GI50 overview
system: SR; assay: NCI tumour cell line growth inhibition, 48 h
The source made the active and inactive calls. Cut-off read from the data, not from the text of the source: active = GI50 up to about 1.1 µM and inactive = higher.

>  <MOLECULE>
O=CN1CCN(C(=O)c2ccco2)C1=S

>  <SUBJECT OF TEST>
SR

>  <GI50>
2.11 µM (inactive)

$$$$
>  <MOLECULE>
COC(=O)c1cccn1C(=O)n1cccc1

>  <SUBJECT OF TEST>
SR

>  <GI50>
> 100 µM (inactive)

$$$$
>  <MOLECULE>
Cc1nn(-c2ccccc2)c2nc(S)cnc12

>  <SUBJECT OF TEST>
SR

>  <GI50>
> 100 µM (inactive)

$$$$
>  <MOLECULE>
CC1(c2cccc(C(F)(F)F)c2)CC(c2cccc(C(F)(F)F)c2)=C(C#N)C(=C(C#N)C#N)N1 (stereo unspecified)

>  <SUBJECT OF TEST>
SR

>  <GI50>
12.6 µM (inactive)

$$$$
>  <MOLECULE>
CC(C)(C)C(=O)OC(N)/C=C/c1ccccc1 (stereo unspecified)

>  <SUBJECT OF TEST>
SR

>  <GI50>
94 µM (inactive)

$$$$
>  <MOLECULE>
CC(C)c1ccc2c(c1)/C(=C1/Nc3ccccc3/C1=N/O)C(=O)N2

>  <SUBJECT OF TEST>
SR

>  <GI50>
2.61 µM (inactive)

$$$$

###

test system: UACC-62; experiment: NCI tumour cell line growth inhibition, 48 h
Calls of active or inactive are those of the source. Cut-off read from the data, not from the text of the source: active = GI50 up to about 1.1 µM and inactive = higher.

>  <COMPOUND>
COc1cc(OC)cc(-c2nc(O)c3ccccc3n2)c1

>  <GI50>
> 100 µM (inactive)

$$$$
>  <COMPOUND>
O=C1C=CC2(C=C1)O[C@H](CCc1ccccc1)[C@@H](CCc1ccccc1)O2

>  <GI50>
> 100 µM (inactive)

$$$$
>  <COMPOUND>
COc1cc(C2C3=C(COC3=O)Oc3cc4c(cc32)OCO4)cc(OC)c1O (centres undefined)

>  <GI50>
< 0.01 µM (active)

$$$$
>  <COMPOUND>
CC(=O)OC12c3ccccc3C(c3ccccc31)C1C(=O)N(c3ccccn3)C(=O)C12 (centres undefined)

>  <GI50>
91.6 µM (inactive)

$$$$
>  <COMPOUND>
Cc1cn2c(/C=N/NC(=N)N)c(-c3cc([N+](=O)[O-])c(Cl)cc3Cl)nc2s1

>  <GI50>
1.98 µM (inactive)

$$$$
>  <COMPOUND>
COCC1N=C(c2cc(OC)c(OC)c(OC)c2-c2cc3c(cc2[C@@H](C)O)OCO3)O[C@H]1c1ccccc1 (some centres undefined)

>  <GI50>
33.6 µM (inactive)

$$$$
>  <COMPOUND>
CC(=O)N(C(=O)CC(=O)N1N=C(C)C(/N=N/c2cccc([N+](=O)[O-])c2)C1=O)c1ccc(Cl)cc1 (centres undefined)

>  <GI50>
> 10 µM (inactive)

$$$$
>  <COMPOUND>
CCOC(=O)C(Cc1c(-c2[nH]c3ccccc3c2CC(NC(=O)CNC(C)=O)C(=O)OCC)[nH]c2ccccc12)NC(=O)CNC(C)=O (centres undefined)

>  <GI50>
74.3 µM (inactive)

$$$$
>  <COMPOUND>
CCN(CC)CCOC(=O)Cc1cccc2c(=O)cc(-c3ccccc3)oc12

>  <GI50>
29 µM (inactive)

$$$$
